CHOLESTEROL overview
Species on record: Rattus norvegicus
experiment: DrugMatrix - Regimen: Daily Repeat
Format: toxicity, organism-based, Sprague-Dawley
Design: regimen Daily Repeat, gender Male, age 6-8 weeks
setup_conditions: in vivo, po, 0 mg/kg, 120 h, tissue Plasma, route oral GAVAGE, dose level Control, time 5 day, vehicle .5 % CMC
measured_property: CHOLESTEROL

1. COc1ccc2c(c1OC)C(=O)O[C@@H]2[C@H]1c2c(cc3c(c2OC)OCO3)CCN1C [NOSCAPINE]: 61 mg/dL
2. C[C@@](Cc1ccc(O)c(O)c1)(NN)C(=O)O.O [CARBIDOPA]: 71.33 mg/dL
3. CCC1=C(C)CN(C(=O)NCCc2ccc(S(=O)(=O)NC(=O)N[C@H]3CC[C@H](C)CC3)cc2)C1=O [GLIMEPIRIDE]: 71.33 mg/dL
4. COc1ccccc1[N+](=O)[O-] [2-NITROANISOLE]: 71.83 mg/dL
5. CCCNC(=O)NS(=O)(=O)c1ccc(Cl)cc1 [CHLORPROPAMIDE]: 67.83 mg/dL
6. CN1C(=O)CN=C(c2ccccc2)c2cc([N+](=O)[O-])ccc21 [NIMETAZEPAM]: 66.33 mg/dL
7. C[C@]12CC[C@@H]3c4ccc(O)cc4CC[C@H]3[C@@H]1C[C@@H](O)[C@@H]2O [ESTRIOL]: 72.83 mg/dL
8. CN1CCN(C2=Nc3cc(Cl)ccc3Nc3ccccc32)CC1 [CLOZAPINE]: 67.83 mg/dL
9. COc1cc(OC)c(C(=O)CCCN2CCCC2)c(OC)c1 [BUFLOMEDIL]: 57 mg/dL

---

Species: Rattus norvegicus
experiment: DrugMatrix - Regimen: Daily Repeat
Format: toxicity, organism-based, Sprague-Dawley
Parameters: regimen Daily Repeat, gender Male, age 6-8 weeks
setup_conditions: in vivo, po, 0 mg/kg, 120 h, tissue Blood, route oral GAVAGE, dose level Control, time 5 day, […]
measured_property: LYMPHOCYTE (%)

1) CCCCC(=O)N(Cc1ccc(-c2ccccc2-c2nnn[nH]2)cc1)[C@H](C(=O)O)C(C)C: 94.33
2) CC(C)c1c(C(=O)Nc2ccccc2)c(-c2ccccc2)c(-c2ccc(F)cc2)n1CC[C@@H](O)C[C@@H](O)CC(=O)O [ATORVASTATIN]: 90.17
3) CS(=O)(=O)Nc1ccc([N+](=O)[O-])cc1Oc1ccccc1 [NIMESULIDE]: 90.33
4) O=c1c(-c2ccc(O)cc2)coc2cc(O)cc(O)c12 [GENISTEIN]: 90.17

---

Species: Rattus norvegicus
experiment: DrugMatrix - Regimen: Daily Repeat
Type: toxicity, organism-based, Sprague-Dawley
Design: regimen Daily Repeat, gender Male, age 6-8 weeks
setup_conditions: in vivo, po, 0 mg/kg, 72 h, tissue Blood, route oral GAVAGE, dose level Control, time 3 day, vehicle 100 % WATER
measured_property: ABSOLUTE SEGMENTED NEUTROPHIL (CELLS/uL)

1. CN(C)C(=O)Oc1cccc([N+](C)(C)C)c1.[Br-] [NEOSTIGMINE BROMIDE]: 817.83
2. O=c1[nH]c(=O)n(C2CCCO2)cc1F (stereo not drawn) [TEGAFUR]: 1223.17
3. NC(=O)c1cccnc1 [NIACINAMIDE]: 1242.33
4. CCN(C(C)=O)c1cccc(-c2ccnc3c(C#N)cnn23)c1 [ZALEPLON]: 815.33
5. NC12CC3CC(CC(C3)C1)C2 [AMANTADINE]: 815.33
6. CN(C)CCC=C1c2ccccc2CCc2ccccc21 [AMITRIPTYLINE]: 815.33
7. CNC1=Nc2ccc(Cl)cc2C(c2ccccc2)=[N+]([O-])C1 [CHLORDIAZEPOXIDE]: 1021.17
8. CCCC(C)C1(CC)C(=O)NC(=O)NC1=O (stereo not drawn) [PENTOBARBITAL]: 817.83

---

Species: Rattus norvegicus
experiment: DrugMatrix - Regimen: Daily Repeat
Assay type: toxicity, organism-based, Sprague-Dawley
Parameters: regimen Daily Repeat, gender Male, age 6-8 weeks
setup_conditions: in vivo, iv, 0 mg/kg, 72 h, tissue Blood, dose level Control, time 3 day, vehicle 100 % SALINE
measured_property: HEMOGLOBIN (G/DL)

1) N=C(N)c1ccc(OCCCCCOc2ccc(C(=N)N)cc2)cc1 [PENTAMIDINE]: 13.48
2) COc1cccc2c1C(=O)c1c(O)c3c(c(O)c1C2=O)C[C@@](O)(C(C)=O)C[C@@H]3O[C@H]1C[C@H](N)[C@H](O)[C@H](C)O1 [DAUNORUBICIN]: 13.8
3) O=C(O)P(=O)(O)O [FOSCARNET]: 12.65
4) C[N+](C)(C)CCOC(=O)CCC(=O)OCC[N+](C)(C)C.[Cl-].[Cl-] [SUCCINYLCHOLINE CHLORIDE]: 13.48
5) O=c1[nH]c(=O)n([C@H]2C[C@H](O)[C@@H](CO)O2)cc1F [FLOXURIDINE]: 13.58

---

Species: Rattus norvegicus
experiment: DrugMatrix - Regimen: Daily Repeat
Assay type: toxicity, organism-based, Sprague-Dawley
Parameters: regimen Daily Repeat, gender Male, age 6-8 weeks
setup_conditions: in vivo, po, 0 mg/kg, 120 h, tissue Blood, route oral GAVAGE, dose level Control, time 5 day, vehicle 100 % WATER
LYMPHOCYTE overview
measured_property: LYMPHOCYTE (%)

1. CN(C)C(=O)Oc1cccc([N+](C)(C)C)c1.[Br-] [NEOSTIGMINE BROMIDE]: 90.33
2. CCN(C(C)=O)c1cccc(-c2ccnc3c(C#N)cnn23)c1: 92.17
3. NC(=O)c1cccnc1 [NIACINAMIDE]: 87.5
4. CCCC(C)C1(CC)C(=O)NC(=O)NC1=O (centres undefined): 90.33

---

Organism: Rattus norvegicus
experiment: DrugMatrix - Regimen: Daily Repeat
Format: toxicity, organism-based, Sprague-Dawley
Set-up: regimen Daily Repeat, gender Male, age 6-8 weeks
setup_conditions: in vivo, po, 0 mg/kg, 120 h, tissue Blood, route oral GAVAGE, dose level Control, time 5 day, vehicle .5 % CMC
ERYTHROCYTE COUNT overview
measured_property: ERYTHROCYTE COUNT (x10E6/uL)

1. CN1C(=O)CN=C(c2ccccc2)c2cc([N+](=O)[O-])ccc21 [NIMETAZEPAM]: 6.96
2. CCOc1nc2cccc(C(=O)O)c2n1Cc1ccc(-c2ccccc2-c2nnn[nH]2)cc1: 5.65
3. CCCNC(=O)NS(=O)(=O)c1ccc(Cl)cc1 [CHLORPROPAMIDE]: 6.05
4. CN(C)CCN(Cc1cccs1)c1ccccn1: 7.12
5. C[C@@](Cc1ccc(O)c(O)c1)(NN)C(=O)O.O [CARBIDOPA]: 5.78
6. CN(C)C(=O)C(CCN1CCC(O)(c2ccc(Cl)cc2)CC1)(c1ccccc1)c1ccccc1 [LOPERAMIDE]: 5.32
7. CCn1cc(C(=O)O)c(=O)c2cc(F)c(N3CCNC(C)C3)c(F)c21 (stereo not drawn) [LOMEFLOXACIN]: 6.96
8. CCC1=C(C)CN(C(=O)NCCc2ccc(S(=O)(=O)NC(=O)N[C@H]3CC[C@H](C)CC3)cc2)C1=O [GLIMEPIRIDE]: 5.32
9. CN1CCN(C2=Nc3cc(Cl)ccc3Nc3ccccc32)CC1 [CLOZAPINE]: 6.05
10. COc1ccc2c(c1OC)C(=O)O[C@@H]2[C@H]1c2c(cc3c(c2OC)OCO3)CCN1C [NOSCAPINE]: 7.12
11. C[C@]12CC[C@@H]3c4ccc(O)cc4CC[C@H]3[C@@H]1C[C@@H](O)[C@@H]2O [ESTRIOL]: 5.52
12. COc1cc(OC)c(C(=O)CCCN2CCCC2)c(OC)c1 [BUFLOMEDIL]: 5.65
13. NC(=O)N1c2ccccc2CC(=O)c2ccccc21 [OXCARBAZEPINE]: 5.71
14. C[C@H]1[C@H](NC(=O)/C(=N\OC(C)(C)C(=O)O)c2csc(N)n2)C(=O)N1S(=O)(=O)O [AZTREONAM]: 5.78
15. CCCCC1=NC2(CCCC2)C(=O)N1Cc1ccc(-c2ccccc2-c2nnn[nH]2)cc1 [IRBESARTAN]: 7.02
16. COc1ccccc1[N+](=O)[O-] [2-NITROANISOLE]: 5.37
17. C#C[C@]1(O)CC[C@H]2[C@@H]3CCC4=CC(=O)CC[C@]4(C)[C@H]3CC[C@@]21C [ETHISTERONE]: 7.12
18. C[C@@H]1O[C@@H](O[C@H]2C[C@@H](O)[C@]3(CO)[C@H]4[C@H](O)C[C@]5(C)[C@@H](C6=CC(=O)OC6)CC[C@]5(O)[C@@H]4CC[C@]3(O)C2)[C@H](O)[C@H](O)[C@H]1O [OUABAIN]: 5.53
